Target: T1, human PCSK9 (proprotein convertase subtilisin kexin type 9) (human, UniProt Q8NBP7 31-692)
T1 construct: Directly immobilized (SPR ProteOn), biotinylated (BLI), or in solution, depending on the assay; also called hPCSK9
T1 sequence (Q8NBP7 31-692 limits assumed): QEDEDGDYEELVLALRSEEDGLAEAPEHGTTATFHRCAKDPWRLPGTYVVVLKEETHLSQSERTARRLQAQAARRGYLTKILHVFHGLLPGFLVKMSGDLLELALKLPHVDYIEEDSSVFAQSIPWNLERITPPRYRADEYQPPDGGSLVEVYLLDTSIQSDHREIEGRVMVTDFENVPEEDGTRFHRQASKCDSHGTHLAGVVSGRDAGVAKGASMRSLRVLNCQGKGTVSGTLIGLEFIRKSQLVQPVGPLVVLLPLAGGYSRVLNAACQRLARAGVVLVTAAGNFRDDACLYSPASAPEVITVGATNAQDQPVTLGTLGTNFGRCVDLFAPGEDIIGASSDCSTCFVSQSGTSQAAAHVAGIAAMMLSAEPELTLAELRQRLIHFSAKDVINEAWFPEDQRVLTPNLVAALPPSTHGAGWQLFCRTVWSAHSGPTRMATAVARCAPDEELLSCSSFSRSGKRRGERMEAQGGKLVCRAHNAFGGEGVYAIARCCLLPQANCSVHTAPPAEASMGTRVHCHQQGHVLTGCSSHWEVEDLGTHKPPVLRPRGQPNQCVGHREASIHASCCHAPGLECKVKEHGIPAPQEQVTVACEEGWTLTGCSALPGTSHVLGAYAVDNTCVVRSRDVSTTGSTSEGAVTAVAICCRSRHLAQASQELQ
Assay: BLI, biotinylated hPCSK9 on sensor tips
Description: Tips were then immersed into a buffer-only well for observation of Adnectin dissociation. Experiments were performed in a temperature controlled environment at either 25 or 37° C., and the oscillation speed was set at 1500 rpm. Binding interaction analysis was performed using proprietary software from Fortebio (Fortebio Data Analysis Software version 6.3.0.36). Global fits were performed for all samples, using a 1:1 binding model. […]
REPORTED_METRIC: koff (s⁻¹)
# output: bare number, implied unit s⁻¹

Worked examples, 3 binders total:
[[record]]
binder = "2382E03 (designed binder, Anti-PCSK9 Adnectin, His6-tagged) MGVSDVPRDLEVVAATPTSLLISWDAPAGDGYGYYRITYGETGGNSPVQEFTVPVSKGTATISGLKPGVDYTITVYAVEFDFPGAGYYHRPISINYRTEIDKPSQHHHHHH"
meas_value = 0.000596

[[record]]
binder = "2381D04 (designed binder, Anti-PCSK9 Adnectin, His6-tagged) MGVSDVPRDLEVVAATPTSLLISWEPFSRLPGGGEYYRITYGETGGNSPLQQFTVPGSKGTATISGLKPGVDYTITVYAVEFPYDHSGYYHRPISINYRTEIDKPSQHHHHHH"
meas_value = "6.9e-05"

[[record]]
binder = "2381B04 (designed binder, Anti-PCSK9 Adnectin, His6-tagged) MGVSDVPRDLEVVAATPTSLLISWEPFSRLPGGGEYYRITYGETGGNSPLQQFTVPGSKGTATISGLKPGVDYTITVYAVEYPYEHSGYYHRPISINYRTEIDKPSQHHHHHH"
meas_value = 0.00016


Please examine the following record next.
**Query** Quick check: koff of 2382H10 (designed binder, Anti-PCSK9 Adnectin, His6-tagged) MGVSDVPRDLEVVAATPTSLLISWDAPAGGYGYYRITYGETGGNSPVQEFTVPVSKGTATISGLKPGVDYTITVYAVEFDFPGSGYYHRPISINYRTEIDKPSQHHHHHH ?
**Result** 0.000382
